# system: various mutants of kinase EGFR (BaF3 cell lines stably transfected with kinase) (Homo sapiens, UniProt P00533, T790M, form not given)
# Construct: other: BaF3 cells stably transfected with EGFR Δ19Del/T790M; MTS, 48 h; other: BaF3 cell line stably transfected with EGFR Δ19Del/T790M; MTS, 48
# Sequence (P00533 with tags, fused parts or gaps DEL746-750/T790M, form open): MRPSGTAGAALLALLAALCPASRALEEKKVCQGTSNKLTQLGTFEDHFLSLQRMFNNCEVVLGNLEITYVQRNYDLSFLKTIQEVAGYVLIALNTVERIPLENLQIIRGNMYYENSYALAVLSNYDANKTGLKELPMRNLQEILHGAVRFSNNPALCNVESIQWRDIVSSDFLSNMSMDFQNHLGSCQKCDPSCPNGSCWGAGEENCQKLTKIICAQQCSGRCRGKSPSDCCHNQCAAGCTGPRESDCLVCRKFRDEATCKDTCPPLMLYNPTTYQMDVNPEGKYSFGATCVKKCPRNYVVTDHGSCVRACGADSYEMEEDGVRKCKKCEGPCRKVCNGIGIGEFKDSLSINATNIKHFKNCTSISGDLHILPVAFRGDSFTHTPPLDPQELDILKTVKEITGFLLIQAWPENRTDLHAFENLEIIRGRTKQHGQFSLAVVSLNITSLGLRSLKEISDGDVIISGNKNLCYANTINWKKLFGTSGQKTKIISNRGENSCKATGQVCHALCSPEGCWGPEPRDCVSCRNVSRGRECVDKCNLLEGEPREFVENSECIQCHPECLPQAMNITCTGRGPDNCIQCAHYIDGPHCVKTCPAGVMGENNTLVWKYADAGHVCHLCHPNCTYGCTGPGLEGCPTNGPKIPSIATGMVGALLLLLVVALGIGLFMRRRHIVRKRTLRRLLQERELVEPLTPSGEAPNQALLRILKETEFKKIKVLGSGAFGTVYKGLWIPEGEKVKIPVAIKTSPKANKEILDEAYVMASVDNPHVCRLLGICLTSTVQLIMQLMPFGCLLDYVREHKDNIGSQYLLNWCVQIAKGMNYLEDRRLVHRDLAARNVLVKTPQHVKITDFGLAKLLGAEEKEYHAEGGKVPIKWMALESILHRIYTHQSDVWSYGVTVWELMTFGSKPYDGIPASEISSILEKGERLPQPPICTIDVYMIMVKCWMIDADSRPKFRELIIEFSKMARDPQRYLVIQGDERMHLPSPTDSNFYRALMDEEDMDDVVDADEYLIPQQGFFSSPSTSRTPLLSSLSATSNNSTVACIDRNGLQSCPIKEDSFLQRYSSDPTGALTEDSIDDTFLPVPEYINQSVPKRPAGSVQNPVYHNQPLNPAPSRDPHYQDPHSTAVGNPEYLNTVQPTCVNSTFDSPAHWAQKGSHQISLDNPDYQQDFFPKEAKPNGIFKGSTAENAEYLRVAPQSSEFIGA
# experiment: Growth inhibitory activity of compounds on BaF3 cell lines stably transfected with kinase (MTS, 48 h)
# Type: cell-based
# recordedConditions: BaF3 cells stably transfected with EGFR Δ19Del/T790M, read-out: IC50, growth inhibition, Δ19Del/T790M
pIC50: −log10 of the molar value.
Each entry below carries its recorded pIC50.

Sample answers from the record:
> print(dat)
                                   compound  endpointvalue
1  CCc1cc(Nc2ncc(Cl)c(Nc3ccc4nccnc4c3N(C)S(C)(=O)=O)n2)c(OC)cc1N1CCC(N(C)C)C1 (stereo not drawn) [Compound I-174]         ≥ 7.30
2  CCc1cc(Nc2ncc(Br)c(Nc3ccc4nccnc4c3N(CC)S(C)(=O)=O)n2)c(OC)cc1N1CCC(N(C)C)C1 (stereo not drawn) [Compound I-98]         ≥ 7.30
3  CCc1cc(Nc2ncc(Br)c(Nc3ccc4nccnc4c3N(CC)S(C)(=O)=O)n2)c(OC)cc1N1CCC(N(C)C)CC1 [Compound I-97]         ≥ 7.30

Param item = CCc1cc(Nc2ncc(Cl)c(Nc3ccc4nccnc4c3N(C)S(=O)(=O)CC)n2)c(OC)nc1N1CCC(N2CCN(C)CC2)CC1 [Compound I-234] ; retrieve measured pIC50.
≥ 7.30

Please report the recorded pIC50 for COc1cc(N2CCC(N3CCN(C)CC3)CC2)c(CC2CC2)cc1Nc1ncc(Cl)c(Nc2ccc3nccnc3c2N(C2CC2)S(C)(=O)=O)n1 [Compound I-242] .
6.30 to 7.30

What value of measured pIC50 is listed for CCc1cc(Nc2ncc(Br)c(Nc3ccc4nccnc4c3N(CC)S(C)(=O)=O)n2)c(OC)nc1N1CCC(N2CCN(C)CC2)CC1 [Compound I-212] ?
≥ 7.30
